The origin of these recorded values is patent US20160130278A1.

Biological target: human type 1 glycine transporter (GlyT1) (Homo sapiens, UniProt P48067)
Construct: T98G cells (glioma cells) expressing human type 1 glycine transporter (GlyT1) were used
Experiment: Glycine uptake inhibition experiment ([3H]glycine uptake)
Format: cell-based
Settings: GlyT1
Recorded Metric: pIC50
API: returns pIC50 as number; meaning -log10 of concentration in mol/L.

Here's what some known entries look like.
Compound: CCn1cc(-c2cccc(C(NC(=O)c3ccccc3Cl)C3(O)CCC(F)(F)CC3)c2)cn1 (stereo not shown) [Compound 205]
pIC50: 5.72

Compound: O=C(NC(c1cccc(F)c1Cl)[C@]1(O)CC[C@@H](F)CC1)c1ccnc(C(F)(F)F)c1Cl (single isomer, unassigned) [Compound 223]
pIC50: 7.25

Compound: O=C(NC(c1cccc(Cl)c1F)C1(O)CCC(F)CC1)c1ccnc(C(F)(F)F)c1Cl (single isomer, unassigned) [Compound 201]
pIC50: 6.89

pIC50 measured on CC(C)n1cc(-c2cccc(C(NC(=O)c3nccc(C(F)(F)F)c3Cl)C3(O)CCC(F)(F)CC3)c2)cn1 (single isomer, unassigned) [Compound 134] = 7.51

Lab note: measured pIC50 of O=C(NC(c1ccccc1Cl)C1(O)CCC(F)(F)CC1)c1nccc(C(F)(F)F)c1Cl (stereo not shown) [Compound 103] was 6.60

* * *

Biological target: human type 1 glycine transporter (GlyT1) (Homo sapiens)
Construct: T98G cells (glioma cells) expressing human type 1 glycine transporter (GlyT1) were used
Sequence (P48067 1-706): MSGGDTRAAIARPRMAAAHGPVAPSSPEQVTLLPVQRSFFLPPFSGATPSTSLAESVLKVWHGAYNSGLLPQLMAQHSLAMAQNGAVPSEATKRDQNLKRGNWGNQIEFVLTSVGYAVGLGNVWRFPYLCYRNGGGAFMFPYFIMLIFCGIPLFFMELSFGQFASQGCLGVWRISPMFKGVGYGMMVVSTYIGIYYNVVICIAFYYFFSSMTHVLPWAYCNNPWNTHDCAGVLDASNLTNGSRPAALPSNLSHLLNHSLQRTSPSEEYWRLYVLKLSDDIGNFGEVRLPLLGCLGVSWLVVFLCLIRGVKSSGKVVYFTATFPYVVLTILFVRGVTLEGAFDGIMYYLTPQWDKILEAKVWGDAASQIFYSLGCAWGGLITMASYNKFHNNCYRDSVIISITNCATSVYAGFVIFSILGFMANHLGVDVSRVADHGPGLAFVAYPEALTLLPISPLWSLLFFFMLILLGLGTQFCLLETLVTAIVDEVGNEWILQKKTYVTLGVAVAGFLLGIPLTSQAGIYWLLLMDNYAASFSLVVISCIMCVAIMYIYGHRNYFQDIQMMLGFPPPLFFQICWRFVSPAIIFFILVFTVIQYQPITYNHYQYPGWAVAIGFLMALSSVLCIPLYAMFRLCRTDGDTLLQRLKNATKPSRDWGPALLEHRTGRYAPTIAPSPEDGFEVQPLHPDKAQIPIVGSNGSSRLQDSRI
Assay: Glycine uptake inhibition experiment ([3H]glycine uptake)
Assay type: cell-based
Conditions: GlyT1
Recorded Metric: pIC50
// pIC50: -log10(molar conc.)

Compound: O=C(NC(c1cccc(F)c1Cl)[C@]1(O)CC[C@@H](F)CC1)c1cc(C(F)(F)F)cnc1Cl (single isomer, unassigned)
Assayed System: human type 1 glycine transporter (GlyT1) (Homo sapiens)
Assay Value: 6.82

Compound: O=C(NC(c1cccc(Cl)c1Cl)C1(O)CCC(F)(F)CC1)c1nccc(C(F)(F)F)c1Cl (single isomer, unassigned) [Compound 137]
Assayed System: human type 1 glycine transporter (GlyT1) (Homo sapiens)
Assay Value: 7.21

Then there is this compound:
Record O=C(NC(c1cccc(F)c1Cl)[C@]1(O)CC[C@@H](F)CC1)c1cc(C(F)(F)F)ccc1Cl (single isomer, unassigned) ; system human type 1 glycine transporter (GlyT1) (Homo sapiens); pIC50 = 6.92

* * *

Molecular target: human type 1 glycine transporter (GlyT1) (Homo sapiens, UniProt P48067)
Construct: T98G cells (glioma cells) expressing human type 1 glycine transporter (GlyT1) were used
Sequence (P48067 1-706): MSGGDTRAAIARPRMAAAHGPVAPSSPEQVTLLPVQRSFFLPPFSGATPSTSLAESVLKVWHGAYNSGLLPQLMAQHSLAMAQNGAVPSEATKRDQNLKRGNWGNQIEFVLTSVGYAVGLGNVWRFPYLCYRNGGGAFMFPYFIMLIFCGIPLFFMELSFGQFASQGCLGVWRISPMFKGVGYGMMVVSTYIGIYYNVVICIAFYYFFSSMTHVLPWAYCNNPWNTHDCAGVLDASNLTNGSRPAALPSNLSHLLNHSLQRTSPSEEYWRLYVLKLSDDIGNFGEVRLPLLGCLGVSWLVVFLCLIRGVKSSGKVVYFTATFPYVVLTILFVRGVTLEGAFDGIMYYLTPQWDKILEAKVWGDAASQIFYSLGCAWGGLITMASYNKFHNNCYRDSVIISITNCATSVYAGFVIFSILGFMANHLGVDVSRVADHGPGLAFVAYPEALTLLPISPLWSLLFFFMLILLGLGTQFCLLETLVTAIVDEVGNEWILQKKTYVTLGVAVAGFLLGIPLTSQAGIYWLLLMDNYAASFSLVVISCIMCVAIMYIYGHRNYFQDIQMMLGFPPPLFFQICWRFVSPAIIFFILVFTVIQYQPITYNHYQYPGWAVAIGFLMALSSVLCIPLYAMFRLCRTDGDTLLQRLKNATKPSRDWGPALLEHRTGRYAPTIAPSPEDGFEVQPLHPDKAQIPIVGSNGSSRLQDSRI
Test: Glycine uptake inhibition experiment ([3H]glycine uptake)
Type: cell-based
Conditions: GlyT1
pIC50: −log10 of the molar value.
Response key: Fulfilled means pIC50 >= 6; Not fulfilled means pIC50 < 6.

Example results:
Compound: O=C(NC(c1cccc(F)c1Cl)[C@]1(O)CC[C@@H](F)CC1)c1ccc(Cl)cc1C(F)(F)F (single isomer, unassigned)
Label Class: Not fulfilled
//
Compound: O=C(NC(c1cccc(-c2cccnc2)c1)C1(O)CCCC1)c1nccc(C(F)(F)F)c1Cl (single isomer, unassigned) [Compound 24]
Label Class: Not fulfilled
//
Compound: O=C(NC(c1cccc(-c2cncnc2)c1)C1(O)CCCC1)c1cccc(C(F)(F)F)c1Cl (stereo not shown)
Label Class: Fulfilled

Qu. Entry O=C(NC(c1cccc(-c2ccncc2)c1)C1(O)CCCC1)c1nccc(C(F)(F)F)c1Cl (stereo not shown) : is its pIC50 no less than 6?
Ans. Fulfilled

Qu. State whether the measured pIC50 reaches 6, counting equality as reaching it, for CCn1cc(-c2cccc(C(NC(=O)c3c(Cl)ccc(Cl)c3OC)C3(O)CCC(F)(F)CC3)c2)cn1 (stereo not shown)
Ans. Fulfilled

Qu. Has O=C(NC(c1cccc(Cl)c1)C1(O)CCC(F)(F)CC1)c1ccnc(C(F)(F)F)c1Cl (single isomer, unassigned) a recorded pIC50 greater than or equal to 6?
Ans. Fulfilled

* * *

Molecular target: human type 1 glycine transporter (GlyT1) (Homo sapiens)
Construct: T98G cells (glioma cells) expressing human type 1 glycine transporter (GlyT1) were used
Assay: Glycine uptake inhibition experiment ([3H]glycine uptake)
Assay type: cell-based
Settings: human GlyT1
Recorded Metric: IC50 (nM)
Numbers only; they are read as nM.

Molecule: CS(=O)(=O)c1cnc(C(F)(F)F)cc1C(=O)NC(c1ccccc1Cl)C1(O)CCC(F)(F)CC1 (single isomer, unassigned)
IC50, nM: 120
--
Molecule: CS(=O)(=O)c1nc(C(F)(F)F)ccc1C(=O)NC(c1ccccc1Cl)C1(O)CCC(F)(F)CC1 (single isomer, unassigned)
IC50, nM: 320
--
Molecule: O=C(NC(c1cccc(Cl)n1)C1(O)CCCC1)c1nccc(C(F)(F)F)c1Cl (single isomer, unassigned) [Compound 397]
IC50, nM: 16

Summary for this molecule, O=C(NC(c1cccc(F)c1)C1(O)CCC(F)(F)CC1)c1ccnc(C(F)(F)F)c1Cl (single isomer, unassigned) : IC50 is 230

Record summary for O=C(NC(c1cccc(Cl)n1)C1(O)CCCC1)c1nccc(C(F)(F)F)c1Cl (single isomer, unassigned) [Compound 398] : reported IC50 = 7500

Reported IC50 ( CS(=O)(=O)c1ncc(C(F)(F)F)cc1C(=O)NC(c1ccccc1Cl)C1(O)CCC(F)(F)CC1 (single isomer, unassigned) ) = 170

* * *

Molecular target: human type 1 glycine transporter (GlyT1) (Homo sapiens, UniProt P48067)
Construct: T98G cells (glioma cells) expressing human type 1 glycine transporter (GlyT1) were used
Assay: Glycine uptake inhibition experiment ([3H]glycine uptake)
Type: cell-based
Conditions: GlyT1
Recorded Metric: log10(IC50) (log10 of the value in nM)
All values: base-10 log of IC50 in nM.

Here's what some known entries look like.
Molecule: O=C(NC(c1ccccc1F)C1(O)CCC(F)(F)CC1)c1nccc(C(F)(F)F)c1Cl (single isomer, unassigned)
Assayed System: human type 1 glycine transporter (GlyT1) (Homo sapiens, UniProt P48067)
Recorded Metric: log10(IC50)
Assay Value: 2.40

Molecule: O=C(NC(c1cccc(Br)c1)C1(O)CCCC1)c1cccc(C(F)(F)F)c1Cl (centres unmarked)
Assayed System: human type 1 glycine transporter (GlyT1) (Homo sapiens, UniProt P48067)
Recorded Metric: log10(IC50)
Assay Value: 2.83

Molecule: O=C(NC(c1ccc(F)c(Cl)c1)[C@]1(O)CC[C@@H](F)CC1)c1nccc(C(F)(F)F)c1Cl (single isomer, unassigned) [Compound 228]
Assayed System: human type 1 glycine transporter (GlyT1) (Homo sapiens, UniProt P48067)
Recorded Metric: log10(IC50)
Assay Value: 3.62

Molecule: O=C(NC(c1cc(Cl)ccc1Cl)C1(O)CCCC1)c1nccc(C(F)(F)F)c1Cl (single isomer, unassigned) [Compound 113]
Assayed System: human type 1 glycine transporter (GlyT1) (Homo sapiens, UniProt P48067)
Recorded Metric: log10(IC50)
Assay Value: 3.23

Molecule: O=C(NC(c1cccc(F)c1Cl)[C@]1(O)CC[C@@H](F)CC1)c1cccnc1-n1cccn1 (single isomer, unassigned)
Assayed System: human type 1 glycine transporter (GlyT1) (Homo sapiens, UniProt P48067)
Recorded Metric: log10(IC50)
Assay Value: 3.23

response.value for O=C(NC(c1ccc(Cl)nc1)C1(O)CCC(F)(F)CC1)c1nccc(C(F)(F)F)c1Cl (single isomer, unassigned) [Compound 277] (field: log10(IC50)) = 2.81

Measured log10(IC50), O=C(NC(c1ccc(F)cc1Cl)C1(O)CCCC1)c1nccc(C(F)(F)F)c1Cl (single isomer, unassigned) [Compound 99] : 3.72

In plain terms, CCn1cc(-c2cccc(C(NC(=O)c3nccc(C(F)(F)F)c3Cl)C3(O)CCCC3)c2)cn1 (single isomer, unassigned) [Compound 13] has a documented log10(IC50) of 2.92

response.value for CCn1cc(-c2cccc(C(NC(=O)c3nccc(C(F)(F)F)c3Cl)C3(O)CCC(F)(F)CC3)c2)cn1 (centres unmarked) [Compound 86] (field: log10(IC50)) = 1.86

Briefly, log10(IC50) measured for O=C(NC(c1cccc(C(F)(F)F)c1)C1(O)CCCC1)c1nccc(C(F)(F)F)c1Cl (centres unmarked) : 2.98

Memo: CCn1cc(-c2cccc(C(NC(=O)c3cccc(Cl)c3Cl)C3(O)CCC(F)(F)CC3)c2)cn1 (single isomer, unassigned) [Compound 144] , reported log10(IC50): 2.72
